All values here come from ChEMBL document CHEMBL4043133.

# PROTOCOL_TEXT: Aqueous solubility of the compound in aqueous buffer at pH 6.8 by UV-absorbance analysis
# Format: physicochemical
MEASUREMENT_NAME: solubility

Study these solved cases before continuing.
STRUCTURE_STRING: O=C(O)CCNc1cc(Nc2ccc3[nH]c(=O)[nH]c3c2)c(Cl)cc1[N+](=O)[O-]
solubility: > 72 µg/mL

STRUCTURE_STRING: O=c1[nH]c2ccc(Nc3cc(NC4CCOCC4)c([N+](=O)[O-])cc3Cl)cc2[nH]1
solubility: 0.61 µg/mL

STRUCTURE_STRING: O=C1CCc2cc(Nc3cc(OC4CCOCC4)c([N+](=O)[O-])cc3Cl)ccc2N1
solubility: 12 µg/mL

Provide each entry's solubility from the list below.
1. CCOC(=O)CCNc1cc(Nc2ccc3[nH]c(=O)[nH]c3c2)c(Cl)cc1[N+](=O)[O-]
2. O=C1Cc2cc(Nc3cc(OC4CCOCC4)c([N+](=O)[O-])cc3Cl)ccc2N1
3. O=c1[nH]c2ccc(Nc3cc(NCc4cccnc4)c([N+](=O)[O-])cc3Cl)cc2[nH]1
4. O=c1[nH]c2ccc(Nc3cc(NCCCO)c([N+](=O)[O-])cc3Cl)cc2[nH]1
5. O=c1[nH]c2ccc(Nc3cc(OC4CCOCC4)c([N+](=O)[O-])cc3Cl)cc2[nH]1

Response:
["0.42 µg/mL", "12 µg/mL", "< 0.23 µg/mL", "0.09 µg/mL", "18 µg/mL"]

---

# PROTOCOL_TEXT: Mean residence time in mouse at 1 mg/kg, po administered as cassette dosing
# Assay type: ADME, organism-based
# MEASUREMENT_CONDITIONS: in vivo
MEASUREMENT_NAME: MRT (h)
Answers are plain numbers, in h.

Sure, the documented MRT for O=C1CCc2cc(Nc3cc(OC4CCOCC4)c([N+](=O)[O-])cc3Cl)ccc2N1 is 3.3

---

# TARGET_OR_SYSTEM: B-cell lymphoma 6 protein (Homo sapiens, UniProt P41182)
MEASUREMENT_NAME: Kd (µM)
One number for each entry, in µM.

STRUCTURE_STRING: O=c1[nH]c2ccc(Nc3ccc([N+](=O)[O-])cc3Cl)cc2[nH]1
UNIT_LABEL: µM
RECORDED_MEASUREMENT: 5

Proceed to the following item.
Summary: O=[N+]([O-])c1c(NCCCO)cc(Nc2ccc(F)cc2)c2nonc12 , B-cell lymphoma 6 protein (Homo sapiens, UniProt P41182), Kd = 24

---

# PROTOCOL_TEXT: Cytotoxicity against human HepG2 cells assessed as intracellular ATP levels at 30 uM after 24 hrs by CellTiter-Glo assay relative to control
# Assay type: cell-based
# MEASUREMENT_CONDITIONS: read-out: Activity
Can you tell me viability at 24 h, 30 µM for the items I'm about to list?
One number for each entry, in %.

// worked examples, viability at 24 h, 30 µM included
STRUCTURE_STRING: O=C1Cc2cc(Nc3cc(OC4CCOCC4)c([N+](=O)[O-])cc3Cl)ccc2N1
UNIT_LABEL: %
RECORDED_MEASUREMENT: 99

STRUCTURE_STRING: O=c1[nH]c2ccc(Nc3cc(OC4CCOCC4)c([N+](=O)[O-])cc3Cl)cc2[nH]1
UNIT_LABEL: %
RECORDED_MEASUREMENT: 100

We next turn to a different compound, shown below.
// O=C1CCc2cc(Nc3cc(OC4CCOCC4)c([N+](=O)[O-])cc3Cl)ccc2N1 : viability at 24 h, 30 µM value = 83
